What glycan array binding signal (z-score) was measured for each of the following?
Molecular target: Neu5Ac(a2-3)Gal(b1-4)GlcNAc(b1-3)Gal(b1-4)[Fuc(a1-3)]GlcNAc
Experiment: glycan array binding signal (z-score within array); higher = stronger binding
Conditions: glycan notation: IUPAC condensed, linker removed
About 410 targets per protein were measured; listed, in parts, are those with the strongest signals and a random draw of the rest.
Provide a numeric answer; units are not to be included.

Req: Which glycan array binding signal (z-score) value belongs to Banana lectin (Musa acuminata) (protein) MNGAIKVGAWGGNGGSAFDMGPAYRIISVKIFSGDVVDAVDVTFTYYGKTETRHFGGSGGTPHEIVLQEGEYLVGMKGEFGNYHGVVVVGKLGFSTNKKSYGPFGNTGGTPFSLPIAAGKISGFFGRGGDFIDAIGVYLEP ?
Resp: -0.195

Req: How about this binder: HFR-3 (Triticum aestivum) (protein) MKGLLLCALALAFAAVTTHAQLQSCPTRCGKQADGMECPNNLCCSKDGYCGLGVDYCSAGAGCQSGACYDNKICGAQANGTLCRNNHCCSSGGRCGYGREYCSNGCQGGPCWADLKCGHLDNGKLCPNNLCCSQYGYCGLGPEFCGTGCQNGACSTDKPCGNKANGAPCTNNYCCSQYGSCGLGKDYCGTGCQNGACN
Resp: -0.597

The reported numbers originate from the supplement of paper PMC8728848.
